system: PC-3 prostate; test: NCI tumour cell line growth inhibition, 48 h
Reported TGI by item:

Worked examples, 3 molecules total:
COC(=O)c1ccc2c(c1)nc(NC(=O)c1ccccc1)n2CCCc1ccccc1 | > 100 µM
CN(C)c1ccc(/C=c2/c3ccccc3n3c2c2c([n+]3C)CCCC2)cc1 | 2.06 µM
C=CCc1cccc2cc(C(=O)NCc3ccccc3)c(=N)oc12 | > 100 µM

TGI recorded for this molecule, COc1ccccc1/C=N\N/C(N)=N\N=C\c1ccccc1OC , is > 66.2 µM

TGI recorded for this molecule, COc1cc(Nc2nc3ccccc3nc2C(=O)O)cc(OC)c1OC , is > 100 µM

TGI recorded for this molecule, CC(=O)Nc1sc(Br)cc1S(=O)(=O)c1ccc(Cl)cc1 , is 43.1 µM

TGI recorded for this molecule, CC(=O)CCn1c(=S)sc2ccccc21 , is > 100 µM

TGI recorded for this molecule, NC(CCCCCP(=O)(c1ccccc1)C1C=CC=CC1)C(=O)O (stereo unspecified) , is > 100 µM

TGI recorded for this molecule, CCOC(=O)Nc1[nH]cc(-c2ccccc2)c1C#N , is > 100 µM

TGI recorded for this molecule, CCOC(=O)CCC(NC(=O)Cc1ccc(Nc2nc3cc(F)c(F)cc3nc2C(=O)OCC)cc1)C(=O)OCC (stereo unspecified) , is > 100 µM

TGI recorded for this molecule, CCCCCCNc1n[nH]c(=O)c2c1nnn2Cc1ccccc1 , is > 100 µM

* * *

test system: NCI-H226 lung; test: NCI tumour cell line growth inhibition, 48 h; in the data active = GI50 below about 0.43 µM; inactive = the rest
Form entry, call: pick from TRUE = active, FALSE = inactive

COc1cc(Nc2ncccc2C(=O)NCc2cn(Cc3cccc(Oc4ccccc4)c3)nn2)cc(OC)c1 | FALSE
COc1cc(OCc2cccc(-c3ccc(C(O)c4nccs4)cc3)c2C)cc(OC)c1C=O (centres undefined) | TRUE
COc1ccc(/C=C\[N+](=O)[O-])cc1OC | FALSE

Please turn your attention to the following entry.
**Query** // return assay outcome for NS(=O)(=O)c1ccc(/C=C/c2ccc(O)c(O)c2)cc1
**Result** FALSE

* * *

Reported TGI by item:
test system: OVCAR-4 ovarian; assay: NCI tumour cell line growth inhibition, 48 h

TGI recorded for this compound, CCOC(=O)C(C#N)C1=CC(=O)C(=O)c2ccc(OC)cc21 (stereo unspecified) , is 33.7 µM

TGI recorded for this compound, Cc1cc(Cl)cc(OCCn2cc(F)cn2)c1-c1nc(N)nc2c1CN(C(=O)NCC(C)(F)F)C2 , is > 100 µM

TGI recorded for this compound, CN1C(=O)c2ccccc2OC12C=Cc1c(ccc3ccccc13)O2 (stereo unspecified) , is > 52.7 µM

TGI recorded for this compound, CC12C/C(=C\c3ccccc3)C(=O)C3C1CCCC32 , is > 100 µM

TGI recorded for this compound, Cc1cc(C)c2c(n1)sc1c(Nc3ccc(Cl)cc3)ncnc12 , is > 100 µM

TGI recorded for this compound, CC1=C(C)CC2C(=O)N(c3cc(C(C)(C)C)ccc3C(C)(C)C)C(=O)C2C1 (stereo unspecified) , is > 100 µM

TGI recorded for this compound, COc1ccc(/C=C\[N+](=O)[O-])cc1OC , is 27.5 µM

TGI recorded for this compound, O=C1/C(=C/c2ccc(Br)s2)NC(=S)N1c1ccccc1 , is > 100 µM

TGI recorded for this compound, CC(C)Cc1ccc(C(C)C(=O)N2CCN(/C=C/c3ccccc3)CC2)cc1 (stereo unspecified) , is 25.6 µM

TGI recorded for this compound, BrC1=C(Br)C2(SCCS2)[C@H]2C[C@@H]1c1ccccc12 , is > 100 µM

TGI recorded for this compound, Cn1cc(C2=C(c3ccc(N)cc3)C(=O)NC2=O)c2ccccc21 , is > 25 µM

* * *

system: MCF7 breast; assay: NCI tumour cell line growth inhibition, 48 h
Reported TGI by item:

Cc1cc(Cl)cc(OCCn2cc(F)cn2)c1-c1nc(N)nc2c1CN(C(=O)NCC(C)(F)F)C2 | > 100 µM

TGI recorded for this compound, COc1cc(C2C3C=CC=C4CC=CC(=C43)C3CCC(=O)N32)cc(OC)c1OC (stereo not drawn) , is > 100 µM

TGI recorded for this compound, CCOC(=O)C(C#N)C1=CC(=O)C(=O)c2ccc(OC)cc21 (stereo not drawn) , is 31.4 µM

TGI recorded for this compound, CSC1=Nc2c(c(C)c(C)n2COC(CO)CO)C2=NC(=O)C(C)N12 (stereo not drawn) , is > 100 µM

TGI recorded for this compound, O=[N+]([O-])C[C@@]12O[C@]3(O)C4C5CC(C6C5C3C61)C42 (stereo partly drawn) , is > 100 µM

TGI recorded for this compound, O=C(Nc1ccc(Br)cc1F)c1cc(F)ccc1O , is 7.14 µM

TGI recorded for this compound, Cc1ccc(S(=O)(=O)c2[nH]cc(/C(=C\C3CCCCC3)[N+](=O)[O-])c2C2CCCCC2)cc1 , is > 100 µM

TGI recorded for this compound, O=c1[nH]cnc2c1cnn2Cc1cn(CCCCO)nn1 , is > 100 µM

TGI recorded for this compound, COc1cc(C(=O)N2CCN(C=O)C2=S)cc(OC)c1OC , is 24.6 µM

* * *

test system: ACHN renal; test: NCI tumour cell line growth inhibition, 48 h; in the data active = GI50 below about 0.43 µM; inactive = the rest
Form entry, call: pick from active, inactive

Use these answered entries as a reference point.
COc1cccc(CC(C)=C(c2ccc(OCCN(C)C)cc2)c2ccc(OCCN(C)C)cc2)c1 | inactive
CN1CCN(C2CCN(C(=O)Nc3cc(Oc4ccc(NC(=O)C5(C(=O)Nc6ccc(F)cc6)CC5)c(F)c4)ccn3)CC2)CC1 | inactive
Cn1c(I)c(C#CCO[Si](C)(C)C(C)(C)C)c(=O)[nH]c1=O | inactive
CO/N=C(/C)c1cccc(Nc2cc(-n3nnc4ccccc43)nc3ccccc23)c1 | inactive
Nc1ccc([N+](=O)[O-])cc1N=C/C=C/c1ccccc1 | inactive
N.N.N.N.O=C([O-])CCl.O=C([O-])CCl.[Co+3].[O-][Cl+3]([O-])([O-])[O-] | inactive

**Query** // return assay outcome for CC(=O)Nc1ccc(S(=O)(=O)N2C(=O)CCC2C(=O)Nc2ccc(Br)cc2)cc1 (stereo not given)
**Result** inactive

**Query** // return assay outcome for Cc1cc(C)c2c(n1)sc1c(Nc3ccc(Cl)cc3)ncnc12
**Result** active

**Query** // return assay outcome for COc1cc(Nc2ncccc2C(=O)NCc2cn(Cc3cccc(Oc4ccccc4)c3)nn2)cc(OC)c1
**Result** inactive

**Query** // return assay outcome for S=C(Nc1ccc(Cl)cc1)Nc1ccc(-c2nc3ccccc3s2)cc1
**Result** inactive

* * *

system: SF-268 CNS; test: NCI tumour cell line growth inhibition, 48 h
measured_metric: TGI (µM)
Field: numeric (µM). Do not append units.

Worked examples, 2 compounds total:
COc1ccc(/C=C\[N+](=O)[O-])cc1OC | 20.5
O=C1C=CC(=O)c2c1ccc1c3ccccc3n(CCCCCn3c4ccccc4c4ccc5c(c43)C(=O)C=CC5=O)c21 | 32.7

Proceeding to the next compound to report its TGI.
Entry Nc1ccc([N+](=O)[O-])cc1N=C/C=C/c1ccccc1 : TGI on SF-268 CNS = 40.6

* * *

tested on: SW-620 colon; assay: NCI tumour cell line growth inhibition, 48 h
measured_metric: TGI

COC(=O)/C=C(\C(=O)OC)C1C(=O)Oc2c(C)c(=O)c3ccccc3n21 (stereo unspecified) | > 100 µM
NC(CCCCCP(=O)(c1ccccc1)C1C=CC=CC1)C(=O)O (stereo unspecified) | > 100 µM
O=C(CCN(C(=O)O)S(=O)(=O)c1ccc(NC(=O)c2ccccc2)cc1)Nc1ccccc1 | > 68 µM

TGI recorded for this compound, Cc1cc(Nc2ccc(NC(=O)c3ccc(Nc4ccnc5ccccc45)cc3)cc2)nc(N)n1 , is > 100 µM

TGI recorded for this compound, O=c1oc2ccccc2cc1-c1cc2ccccn2c1 , is > 100 µM

TGI recorded for this compound, N#CN/C(N)=N/CO , is > 56.3 µM

* * *

system: OVCAR-3 ovarian; assay: NCI tumour cell line growth inhibition, 48 h
measured_metric: TGI

CCOC(=O)Nc1[nH]cc(-c2ccccc2)c1C#N | > 100 µM
O=C(CCN(C(=O)O)S(=O)(=O)c1ccc(NC(=O)c2ccccc2)cc1)Nc1ccccc1 | > 100 µM
OC(CC1SCCCS1)c1ccccc1 (configuration not stated) | > 100 µM

Entry COC(=O)c1ccc2c(c1)nc(NC(=O)c1ccccc1)n2CCCc1ccccc1 : TGI on OVCAR-3 ovarian = > 100 µM

Entry CCCCCCNc1n[nH]c(=O)c2c1nnn2Cc1ccccc1 : TGI on OVCAR-3 ovarian = > 100 µM

Entry Cc1c(C)c2c(c(N)c1C#N)C(=O)N(NC(=O)c1ccccc1)C2=O : TGI on OVCAR-3 ovarian = > 100 µM

Entry O=C(O)c1nnsc1-c1ccc(-c2snnc2C(=O)O)cc1 : TGI on OVCAR-3 ovarian = > 100 µM

Entry COC[C@@H](N=CC(C)(C)C)C(C)C : TGI on OVCAR-3 ovarian = > 100 µM
